- protocol-description: NCI Yeast Anticancer Drug Screen. Data for the bub3 strain (AID 167)
- experimental-conditions: S. cerevisiae bub3 mutant strain, at 50.0 µM (retest, dose inferred, filed as 5.0), stronger effect = higher value
The panel holds about 79,000 compounds, 15% with a hit somewhere; the sample as a whole holds those more often. The source made the active and inactive calls. No stated cut-off is given here; in the data, active means growth inhibition above about 70%; inactive means the rest.
measured-attribute: growth inhibition

Any idea what its growth inhibition is? The molecule is NC(=S)N/N=C\c1nccc2c(C(F)(F)C(F)(F)C(F)(F)F)cccc12
81% (active)

Any idea what its growth inhibition is? The molecule is CCc1cccc(C(C)(C)C)c1NC(=S)N/C=C(\c1ccccc1)S(=O)Cc1ccccc1 (stereo not drawn)
25% (inactive)

Any idea what its growth inhibition is? The molecule is CN(C)CC1Cc2ccsc2C1=O (stereo not drawn)
88% (active)

Any idea what its growth inhibition is? The molecule is COc1ccc2c(c1)CC[C@@H]1[C@@H]2CC[C@]2(C)/C(=N/OCCN3CCCCC3)CC[C@@H]12
98% (active)

Any idea what its growth inhibition is? The molecule is CCCCn1cnc2c(SCc3ccc(F)cc3)nc(N)nc21
45% (inactive)

Any idea what its growth inhibition is? The molecule is O=C(CCN1CCCCC1)/C(=C\c1ccc(Cl)cc1)c1ccccc1
98% (active)

Any idea what its growth inhibition is? The molecule is [N-]=[N+]=Nc1ccc(SSCCC(=O)ON2C(=O)CCC2=O)cc1
97% (active)

Any idea what its growth inhibition is? The molecule is O=C1c2ccc3ccccc3c2CN2C(=O)CCC12 (stereo not drawn)
39% (inactive)

Any idea what its growth inhibition is? The molecule is Cc1cccc2cc3c(cc12)c(C)cc1ccccc13
-12% (inactive)

Any idea what its growth inhibition is? The molecule is Cc1cc(Br)c(N2C3=C(CC4=C2CCCC4=O)C(=O)CCC3)c(Br)c1
95% (active)

Any idea what its growth inhibition is? The molecule is Cc1cc(/C=C/c2cccc[n+]2C)c(C)n1-c1ccccc1
85% (active)

Any idea what its growth inhibition is? The molecule is O=[N+]([O-])/C(C(Cl)=C(Cl)Cl)=C(/Sc1ccccc1)N1CCOCC1
99% (active)

Any idea what its growth inhibition is? The molecule is CC(C)(C)c1ccc(CN2CCN(C(c3ccccc3)c3ccc(Cl)cc3)CC2)cc1 (stereo not drawn)
73% (active)

Any idea what its growth inhibition is? The molecule is COc1cc2c(ccc3cc4cccc[n+]4cc32)c(Br)c1OC
46% (inactive)

Any idea what its growth inhibition is? The molecule is O=C1c2ccccc2C(O)(C#Cc2ccccc2)c2cnccc21 (stereo not drawn)
97% (active)

Any idea what its growth inhibition is? The molecule is CC(C)(C)CC(C)(C)c1ccc(O)c(O)c1
98% (active)

Any idea what its growth inhibition is? The molecule is O=C(/C=C\c1ccccc1)N1c2ccccc2CC1c1c[nH]c2ccccc12 (stereo not drawn)
41% (inactive)

Any idea what its growth inhibition is? The molecule is CC(C)C(C)OC(=O)Nc1cccc(O)c1 (stereo not drawn)
-74% (inactive)

Any idea what its growth inhibition is? The molecule is COc1cc(C2SC(N)=Nc3c2c(C)nn3C(=O)c2ccccc2O)cc(OC)c1OC (stereo not drawn)
70% (active)

Any idea what its growth inhibition is? The molecule is Cc1cc(=O)oc2c(C)c3oc(CBr)cc3cc12
67% (inactive)

Any idea what its growth inhibition is? The molecule is CC(=O)c1c(C)n(C)c2c1nnc1ccccc12
48% (inactive)

Any idea what its growth inhibition is? The molecule is COC1(CO)C(=O)N(C)CC(=O)N1C (stereo not drawn)
99% (active)

Any idea what its growth inhibition is? The molecule is O=[N+]([O-])c1ccc(Oc2c(Cl)cccc2Cl)cc1
19% (inactive)

Reference source: PubChem BioAssay (NCI)
